# EXPERIMENTAL TARGET: glucose-6-phosphate dehydrogenase-6-phosphogluconolactonase (Plasmodium falciparum 3D7)
# ASSAY DETAILS: concentration-dependent PfGluPho enzyme inhibition – biochemical, fluorescence intensity, dose response (AID 504765)
# ASSAY CONTEXT: Recombinant PfG6PD enzyme, fluorescence intensity (NADPH)
Active and inactive are the calls of the source. No rule for the calls is given here.
Respond using exactly one of the listed classes: label 1 for active, label 0 for inactive

Tell me the recorded outcome of this test for CCc1c(C(=O)Nc2ccccc2)c(C)[nH]c(=S)c1C#N .
label 0

Tell me the recorded outcome of this test for CCOC(=O)c1c(C)n(-c2ccc(C)cc2)c2c(C(C(C)=O)C(=O)O)c(Br)c(O)c(O)c12 (stereo not drawn) .
label 1

Tell me the recorded outcome of this test for CCN(CC)CCn1c2ccccc2c(=O)c2c(O)ccc(O)c21 .
label 1

Tell me the recorded outcome of this test for C[C@]12CC[C@@H]3c4cc(O)c(O)cc4CC[C@H]3[C@@H]1CC[C@@H]2O .
label 0

Tell me the recorded outcome of this test for CCNc1ccccc1CP(=O)(c1ccccc1)c1ccccc1O (stereo not drawn) .
label 1

Tell me the recorded outcome of this test for [O-]/[N+](=C\c1ccco1)c1ccc(Cl)cc1 .
label 1

Tell me the recorded outcome of this test for Cc1cc(NC(=O)c2oc3ccccc3c2C)ccc1-n1cnnn1 .
label 1

Tell me the recorded outcome of this test for CC(=O)OCC1(C)CN(c2ccccc2)NC1=O (stereo not drawn) .
label 1

Tell me the recorded outcome of this test for COc1cc(CNc2ccc3[nH]c(=O)[nH]c3c2)ccc1OCc1ccccc1 .
label 0

Tell me the recorded outcome of this test for O=C(CCc1ccc(S(=O)(=O)N2CCOCC2)cc1)N/N=C/c1ccc(O)c(O)c1O .
label 1

Tell me the recorded outcome of this test for COc1c2ccoc2c(OCC=C(C)C)c2oc(=O)ccc12 .
label 0

Tell me the recorded outcome of this test for COc1ccc(NC2CCCN(Cc3cccc4cnccc34)C2)cc1OC (stereo not drawn) .
label 0

Tell me the recorded outcome of this test for CCN(CC)c1nc(N)nc(NS(=O)(=O)c2ccc(Cl)cc2)n1 .
label 1

Tell me the recorded outcome of this test for C=CCN1C=C2C(=O)C(C)(OC(=O)CCC(=O)OC)C(=O)C(Br)=C2C=C1c1ccc(OC)cc1 (stereo not drawn) .
label 1

Tell me the recorded outcome of this test for OCCN1CCN(C(=S)c2ccc(Cl)c(Cl)c2)CC1 .
label 1

Tell me the recorded outcome of this test for Cc1no[n+]([O-])c1COc1cccc(/C=N/Nc2nncn2N)c1 .
label 1

Tell me the recorded outcome of this test for CCc1ccc(S(=O)(=O)Nc2cc(SCC(=O)O)c(O)c3ccccc23)cc1 .
label 1

Tell me the recorded outcome of this test for Cc1ccc(-n2sc3ccccc3c2=O)cc1 .
label 1

Tell me the recorded outcome of this test for CCOC(=O)C1CCCN(C(=O)Cn2sc3nc(C)cc(C)c3c2=O)C1 (stereo not drawn) .
label 1

Tell me the recorded outcome of this test for O=C1NC(=S)NC(=O)C1=Cc1ccc(Br)s1 .
label 1

Tell me the recorded outcome of this test for O=C(COc1ccccc1F)OCC(=O)c1ccc([N+](=O)[O-])cc1 .
label 1

Tell me the recorded outcome of this test for c1cncc(CNc2ccc3c(c2)OCO3)c1 .
label 1

Tell me the recorded outcome of this test for COc1ccc(OC)c2c1C(=O)C(Cl)=C(Cl)C2=O .
label 1

----------
# EXPERIMENTAL TARGET: glucose-6-phosphate dehydrogenase-6-phosphogluconolactonase (Plasmodium falciparum 3D7)
# ASSAY DETAILS: concentration-dependent PfGluPho enzyme inhibition – biochemical, fluorescence intensity, dose response (AID 504765)
# ASSAY CONTEXT: Recombinant PfG6PD enzyme, fluorescence intensity (NADPH)
Active and inactive are the calls of the source. How the calls were made is not given here.
Respond using exactly one of the listed classes: True = active, False = inactive

Tell me the recorded outcome of this test for C[C@H](CO)N1C[C@H](C)[C@@H](CN(C)C(=O)Nc2ccc(C(F)(F)F)cc2)Oc2c(cccc2N(C)C)C1=O .
True

Tell me the recorded outcome of this test for Nn1c(CSc2nc3ccccc3o2)nnc1CSc1nc2ccccc2o1 .
True

Tell me the recorded outcome of this test for Cc1ccc(SC2=C(Sc3ccc(C)cc3)C(=O)c3ccccc3C2=O)cc1 .
True

Tell me the recorded outcome of this test for CC(Cc1ccc(O)c(O)c1)C(C)Cc1ccc(O)c(O)c1 (stereo not given) .
False

Tell me the recorded outcome of this test for O=C(Nc1nnc(S(=O)(=O)N2CCCC2)s1)c1cccc([N+](=O)[O-])c1 .
True

Tell me the recorded outcome of this test for COc1cccc(CNc2ccc3[nH]c(=O)[nH]c3c2)c1OCc1ccccc1Cl .
False

Tell me the recorded outcome of this test for O=c1c2ccccc2sn1-c1ccc(Cl)cc1 .
True

Tell me the recorded outcome of this test for Cc1nc2ccc(Nc3nc4cc(S(=O)(=O)N5CCOCC5)ccc4o3)cc2s1 .
False

Tell me the recorded outcome of this test for c1ccc(-c2nc(N3CCOCC3)s[n+]2-c2ccccc2)cc1 .
True

Tell me the recorded outcome of this test for Cc1cc(C)c2sc(NC(=O)C3=COCCO3)nc2c1 .
True

----------
# EXPERIMENTAL TARGET: glucose-6-phosphate dehydrogenase-6-phosphogluconolactonase (Plasmodium falciparum 3D7)
# ASSAY DETAILS: concentration-dependent PfGluPho enzyme inhibition – biochemical, fluorescence intensity, dose response (AID 504765)
# ASSAY CONTEXT: Recombinant PfG6PD enzyme, fluorescence intensity (NADPH)
Active and inactive are the calls of the source. No rule for the calls is given here.
Respond using exactly one of the listed classes: active, inactive

Tell me the recorded outcome of this test for CCc1nnc(NC(=O)c2ccc(Cl)nc2)s1 .
active

Tell me the recorded outcome of this test for Cc1nnc(N/N=C\c2ccc(-c3cccc(C(=O)O)c3)o2)n1N .
active

Tell me the recorded outcome of this test for O=c1c2cc([N+](=O)[O-])ccc2sn1-c1ccccc1 .
active

Tell me the recorded outcome of this test for COc1ccccc1NS(=O)(=O)c1cc(NC(=O)c2ccc(Cl)nc2)ccc1N1CCCC1 .
inactive

Tell me the recorded outcome of this test for COc1ccc2c(c1)c(=Cc1ccc(N(C)C)cc1)c1cc(-c3ccccc3)[n+](C)n12 .
active

Tell me the recorded outcome of this test for CC(C)(C)NC(=O)COc1ccc(CNc2ccc3[nH]c(=O)[nH]c3c2)cc1 .
active

Tell me the recorded outcome of this test for COC(=O)C1=C(C(=O)OC)SC2(S1)C(C(=O)OC)=C(C(=O)OC)Sc1c2ssc1=O .
active

Tell me the recorded outcome of this test for C=C1C(=O)O[C@@H]2C[C@@H](C)[C@@H]3C=CC(=O)[C@@]3(C)[C@@H](OC(=O)CC(=O)O[C@H]3[C@@H]4C(=C)C(=O)O[C@@H]4C[C@@H](C)[C@@H]4C=CC(=O)[C@]43C)[C@H]12 .
active

Tell me the recorded outcome of this test for O=c1c2cc(F)ccc2sn1-c1ccccc1Cl .
active

----------
# EXPERIMENTAL TARGET: glucose-6-phosphate dehydrogenase-6-phosphogluconolactonase (Plasmodium falciparum 3D7)
# ASSAY DETAILS: concentration-dependent PfGluPho enzyme inhibition – biochemical, fluorescence intensity, dose response (AID 504765)
# ASSAY CONTEXT: Recombinant PfG6PD enzyme, fluorescence intensity (NADPH)
READOUT LABEL: pIC50
Here pIC50 is given on a logarithmic scale as minus log10 of the concentration in mol/L.

Please give the documented pIC50 of COc1cc(C(=O)O/N=C2/C=C(C)C(=O)C=C2C)cc(OC)c1OC
4.94

Please give the documented pIC50 of CSc1nnc(NC(=O)c2ccc3c(c2)OCO3)s1
5.55

Please give the documented pIC50 of O=S(=O)(Nc1cc(Sc2ncn[nH]2)c(O)c2ccccc12)c1ccccc1
6.13

Please give the documented pIC50 of CC(C)c1nnc(NC(=O)c2cc3ccccc3o2)s1
4.78

Please give the documented pIC50 of CN(C)c1ncc(C2=C(Cl)C(=O)C(N3CCCC3)=C(Cl)C2=O)s1
5.48

Please give the documented pIC50 of O=C(COC(=O)c1cnccn1)c1ccc([N+](=O)[O-])cc1
4.91

Please give the documented pIC50 of O=C1C(Cl)=C(NCCc2ccccc2)C(=O)c2ccccc21
5.48

Please give the documented pIC50 of CCn1c(SCc2nc3scc(-c4ccccc4)c3c(=O)[nH]2)nnc1-c1cccs1
4.76

Please give the documented pIC50 of O=C(CCc1ccc(O)c(O)c1)N/N=C/c1cc2c(cc1[N+](=O)[O-])OCO2
4.85

Please give the documented pIC50 of O=C(O)C(Cc1ccccc1)N1C(=O)C=CC1=O (stereo unspecified)
5.22

Please give the documented pIC50 of COc1cc(CN2CCCC(C(=O)c3ccc4c5c(cccc35)CC4)C2)cc(OC)c1O (stereo unspecified)
5.46

----------
# EXPERIMENTAL TARGET: glucose-6-phosphate dehydrogenase-6-phosphogluconolactonase (Plasmodium falciparum 3D7)
# ASSAY DETAILS: concentration-dependent PfGluPho enzyme inhibition – biochemical, fluorescence intensity, dose response (AID 504765)
# ASSAY CONTEXT: Recombinant PfG6PD enzyme, fluorescence intensity (NADPH)
The source made the active and inactive calls. How the calls were made is not given here.
Respond using exactly one of the listed classes: active, inactive

Tell me the recorded outcome of this test for CC1(C)Cc2c(sc3nc4n(-c5ccccc5)c(=O)c(CCC(=O)O)nn4c(=O)c23)CO1 .
active

Tell me the recorded outcome of this test for COc1ccc(NC(C)C(=O)N/N=C/c2cc(Br)ccc2OC)cc1 (stereo not drawn) .
active

Tell me the recorded outcome of this test for O=C(Nc1nnc(S(=O)(=O)N2CCCCC2)s1)c1cccc(Br)c1 .
active

Tell me the recorded outcome of this test for CCc1cc(-c2n[nH]c(C)c2-c2nc3ccccc3n2C)c(O)cc1O .
inactive

Tell me the recorded outcome of this test for Cc1ccc(/C=C2\C(=O)NC(=S)N(c3ccccc3F)C2=O)s1 .
inactive

Tell me the recorded outcome of this test for CCn1c(SCC(=O)Nc2ccccc2OC)nnc1-c1cnccn1 .
inactive

Tell me the recorded outcome of this test for CCC1(C)CC(C(N)=S)CCO1 (stereo not drawn) .
inactive

Tell me the recorded outcome of this test for Cc1cccc(-n2c(=S)[nH]c3sc4c(c3c2=O)CCc2ccccc2-4)c1 .
inactive

Tell me the recorded outcome of this test for c1nc(SSc2ncnc3nc[nH]c23)c2[nH]cnc2n1 .
active

Tell me the recorded outcome of this test for Cc1cc(SCC(=O)N/N=C/c2ccco2)nc2ccccc12 .
active

Tell me the recorded outcome of this test for Cc1c(N=C2C=C(Br)C(=O)C(Br)=C2)c(=O)n(-c2ccccc2)n1C .
active

Tell me the recorded outcome of this test for CCc1ccccc1N1CSC2=C(C#N)C(c3ccccc3F)CC(=O)N2C1 (stereo not drawn) .
active

Tell me the recorded outcome of this test for O=C(CSc1nc2ccccc2[nH]1)NC1CCCc2ccccc21 (stereo not drawn) .
active

Tell me the recorded outcome of this test for Cc1ccc(-n2c(N)c(C(=O)N3CCN(C)CC3)sc2=S)cc1 .
active

Tell me the recorded outcome of this test for O=C(N/N=C/c1cccc([N+](=O)[O-])c1)C(=O)N1CCCCCC1 .
active

Tell me the recorded outcome of this test for Cc1cccc(OCC(=O)NCC(=O)N/N=C/c2ccccc2)c1 .
active

Tell me the recorded outcome of this test for O=C(Nc1nnc(S(=O)(=O)N2CCCCCC2)s1)c1cccc(Br)c1 .
active

Tell me the recorded outcome of this test for COC(=O)CCC(=O)Nc1sc(Cc2ccccc2)c(C)c1C(N)=O .
inactive

Tell me the recorded outcome of this test for O=C(CCC(=O)OCC(=O)c1ccc([N+](=O)[O-])cc1)Nc1ccccc1Cl .
active

Tell me the recorded outcome of this test for CC1=NOC(=O)/C1=C\c1ccc(-c2ccccc2Br)o1 .
inactive

Tell me the recorded outcome of this test for CC1=C(O)C(=O)C=C2C1=CC=C1C2(C)CCC2(C)C3CC(C)(C(=O)O)CCC3(C)CCC12C (stereo not drawn) .
active

Tell me the recorded outcome of this test for CC(=O)Nc1cc2c(cc1[N+](=O)[O-])-c1ccccc1C2O (stereo not drawn) .
active

Tell me the recorded outcome of this test for Cn1c(=O)[nH]c(=O)c2c1nc(SCCN1CCCCC1)n2CCCc1ccccc1 .
active
